- experiment.notes: Solubility of the compound in PBS buffer at pH 7.4 by HPLC analysis
- Type: physicochemical
Would you mind labelling by solubility? At or over 9 µM is Yes, under is No.

Request: Could you tell me if the measured solubility of `CCOc1cc(-c2nnc(CCN(C)C)n2C)ccc1Nc1ncc2cc(C)nc(NCC(C)(C)C)c2n1` reaches 9 µM or more?
Result: Yes

Request: Could you tell me if the measured solubility of `CCOc1cc(-c2nncn2C)ccc1Nc1ncc2cc(C)nc(N3CC4(CCOCC4)C3)c2n1` reaches 9 µM or more?
Result: Yes

Request: Could you tell me if the measured solubility of `COc1cc(-c2nncn2C)ccc1Nc1ncc2cc(C)nc(NCC(C)(C)C)c2n1` reaches 9 µM or more?
Result: No

Request: Could you tell me if the measured solubility of `CCOc1cc(-c2nncn2C)ccc1Nc1ncc2cc(C)nc(N3CC(C)(C#N)C3)c2n1` reaches 9 µM or more?
Result: No

Request: Could you tell me if the measured solubility of `CCOc1cc(-c2nncn2C)ccc1Nc1ncc2cc(C)nc(N3CC(C)(C)C3)c2n1` reaches 9 µM or more?
Result: Yes

Request: Could you tell me if the measured solubility of `CCOc1cc(-c2nnc(C)n2C)ccc1Nc1ncc2cc(C)nc(NCC(C)(C)C)c2n1` reaches 9 µM or more?
Result: No

Request: Could you tell me if the measured solubility of `COc1cc(-c2nnc3n2CCC3)ccc1Nc1ncc2cc(C)nc(NCC(C)(C)C)c2n1` reaches 9 µM or more?
Result: No

Request: Could you tell me if the measured solubility of `CCOc1cc(-c2nncn2C)ccc1Nc1ncc2cc(C)nc(NCC(C)(C)C)c2n1` reaches 9 µM or more?
Result: No

* * *

- experiment.notes: Cmax in dog at 5 mg/kg, po by ESI-LCMS/MS analysis
- Format: ADME, organism-based, Canis lupus familiaris
- Design: dose 5 mg/kg, route oral
- condition.label: in vivo
result.type: Cmax (µM)
The response must be a number in µM with no trailing unit.

Request: Which Cmax reading was recorded for the compound `CCOc1cc(-c2nncn2C)ccc1Nc1ncc2cc(C)nc(NCC(C)(C)C)c2n1.Cl.Cl` ?
Result: 7.77

* * *

- experiment.notes: Plasma concentration in doxycycline-inducible human DLD-1 cell xenografted mouse model at 25 mg/kg, po administered as single dose and measured after 24 hrs post dose by LC/MS analysis
- Format: ADME, organism-based
result.type: concentration at 24 h

Request: Which concentration at 24 h reading was recorded for the compound `CCOc1cc(-c2nncn2C)ccc1Nc1ncc2cc(C)nc(N3CC4(CCOCC4)C3)c2n1` ?
Result: < 10 nM

* * *

- Tested on: Mus musculus
- experiment.notes: Half life in mouse at 5 mg/kg, iv by ESI-LCMS/MS analysis
- Format: ADME, organism-based
- condition.label: in vivo
result.type: t1/2

Request: Which t1/2 reading was recorded for the compound `CCOc1cc(-c2nncn2C)ccc1Nc1ncc2cc(C)nc(NCC(C)(C)C)c2n1` ?
Result: 2.68 h

Request: Which t1/2 reading was recorded for the compound `CCOc1cc(-c2nncn2C)ccc1Nc1ncc2cc(C)nc(N[C@@H](C)C(C)(C)C)c2n1` ?
Result: 3.47 h

Request: Which t1/2 reading was recorded for the compound `CCOc1cc(-c2nncn2C)ccc1Nc1ncc2cc(C)nc(N3CC(C)(C)C3)c2n1` ?
Result: 1.58 h

Request: Which t1/2 reading was recorded for the compound `CCOc1cc(-c2nncn2C)ccc1Nc1ncc2cc(C)nc(N3CC4(CCOCC4)C3)c2n1` ?
Result: 0.66 h

* * *

- experiment.notes: Intrinsic clearance in CD1 mouse liver microsomes assessed per mg protein at 1 uM preincubated for 10 mins followed NADPH/UDP-glucuronic acid addition and measured after 30 mins by LC-MS/MS analysis
- Assay type: ADME, microsome
- condition.label: 0.5 h
Quick rule for you: CLH under 30 µL/min/mg gets Y, anything else gets N.

Request: # strict comparison: is reported CLH < 30 µL/min/mg? input = `CCOc1cc(-c2nncn2C)ccc1Nc1ncc2cc(C)nc(N[C@@H](C)C(C)(C)C)c2n1`
Result: Y

Request: # strict comparison: is reported CLH < 30 µL/min/mg? input = `CCOc1cc(-c2nncn2C)ccc1Nc1ncc2cc(C)nc(N3CC(C)(C#N)C3)c2n1`
Result: Y

Request: # strict comparison: is reported CLH < 30 µL/min/mg? input = `COc1cc(-c2nnc3n2CCC3)ccc1Nc1ncc2cc(C)nc(NCC(C)(C)C)c2n1`
Result: Y

Request: # strict comparison: is reported CLH < 30 µL/min/mg? input = `CCOc1cc(-c2nncn2C)ccc1Nc1ncc2cc(C)nc(N3CC(C)(C)C3)c2n1`
Result: N

Request: # strict comparison: is reported CLH < 30 µL/min/mg? input = `CCOc1cc(-c2nncn2C)ccc1Nc1ncc2cc(C)nc(NCC(C)(C)C)c2n1`
Result: Y

* * *

- experiment.notes: Volume of distribution at steady state in rat at 1 mg/kg, iv by ESI-LCMS/MS analysis
- Format: ADME, organism-based
- condition.label: in vivo, read-out: Vdss
result.type: Vd (L/kg)
The response must be a number in L/kg with no trailing unit.

Request: Which Vd reading was recorded for the molecule `CCOc1cc(-c2nncn2C)ccc1Nc1ncc2cc(C)nc(N[C@@H](C)C(C)(C)C)c2n1` ?
Result: 1.88

* * *

- experiment.notes: AUClast in rat at 5 mg/kg, po measured after 6 hrs by ESI-LCMS/MS analysis
- Format: ADME, organism-based
- condition.label: in vivo
result.type: AUC(0-t) at 6 h (µM·h)
The response must be a number in µM·h with no trailing unit.

Request: Which AUC(0-t) at 6 h reading was recorded for the compound `CCOc1cc(-c2nncn2C)ccc1Nc1ncc2cc(C)nc(N3CC4(CCOCC4)C3)c2n1` ?
Result: 5.16

* * *

- experiment.notes: Cmax in mouse at 5 mg/kg, po by ESI-LCMS/MS analysis
- Type: ADME, organism-based
- Parameters: dose 5 mg/kg, route oral
- condition.label: in vivo
result.type: Cmax (nM)
The response must be a number in nM with no trailing unit.

Request: Which Cmax reading was recorded for the compound `CCOc1cc(-c2nncn2C)ccc1Nc1ncc2cc(C)nc(N3CC(C)(C)C3)c2n1` ?
Result: 2350

Request: Which Cmax reading was recorded for the compound `CCOc1cc(-c2nncn2C)ccc1Nc1ncc2cc(C)nc(N[C@@H](C)C(C)(C)C)c2n1` ?
Result: 2920

Request: Which Cmax reading was recorded for the compound `CCOc1cc(-c2nncn2C)ccc1Nc1ncc2cc(C)nc(N3CC4(CCOCC4)C3)c2n1` ?
Result: 3080

Request: Which Cmax reading was recorded for the compound `CCOc1cc(-c2nncn2C)ccc1Nc1ncc2cc(C)nc(NCC(C)(C)C)c2n1` ?
Result: 2760

* * *

I'd be grateful if you could share measured AUC(0-t) at 24 h for these entries.
- experiment.notes: AUClast in rat at 5 mg/kg, po measured after 24 hrs by ESI-LCMS/MS analysis
- Format: ADME, organism-based
- condition.label: in vivo
The response must be a number in µM·h with no trailing unit.

Request: Which AUC(0-t) at 24 h reading was recorded for the compound `CCOc1cc(-c2nncn2C)ccc1Nc1ncc2cc(C)nc(NCC(C)(C)C)c2n1` ?
Result: 11.3

Request: Which AUC(0-t) at 24 h reading was recorded for the compound `CCOc1cc(-c2nncn2C)ccc1Nc1ncc2cc(C)nc(N3CC(C)(C)C3)c2n1` ?
Result: 18.3

* * *

I'd be grateful if you could share measured IC50 for these entries.
- target.or.test.system: Dual specificity protein kinase TTK (Homo sapiens)
- Sequence (P33981 whole entry): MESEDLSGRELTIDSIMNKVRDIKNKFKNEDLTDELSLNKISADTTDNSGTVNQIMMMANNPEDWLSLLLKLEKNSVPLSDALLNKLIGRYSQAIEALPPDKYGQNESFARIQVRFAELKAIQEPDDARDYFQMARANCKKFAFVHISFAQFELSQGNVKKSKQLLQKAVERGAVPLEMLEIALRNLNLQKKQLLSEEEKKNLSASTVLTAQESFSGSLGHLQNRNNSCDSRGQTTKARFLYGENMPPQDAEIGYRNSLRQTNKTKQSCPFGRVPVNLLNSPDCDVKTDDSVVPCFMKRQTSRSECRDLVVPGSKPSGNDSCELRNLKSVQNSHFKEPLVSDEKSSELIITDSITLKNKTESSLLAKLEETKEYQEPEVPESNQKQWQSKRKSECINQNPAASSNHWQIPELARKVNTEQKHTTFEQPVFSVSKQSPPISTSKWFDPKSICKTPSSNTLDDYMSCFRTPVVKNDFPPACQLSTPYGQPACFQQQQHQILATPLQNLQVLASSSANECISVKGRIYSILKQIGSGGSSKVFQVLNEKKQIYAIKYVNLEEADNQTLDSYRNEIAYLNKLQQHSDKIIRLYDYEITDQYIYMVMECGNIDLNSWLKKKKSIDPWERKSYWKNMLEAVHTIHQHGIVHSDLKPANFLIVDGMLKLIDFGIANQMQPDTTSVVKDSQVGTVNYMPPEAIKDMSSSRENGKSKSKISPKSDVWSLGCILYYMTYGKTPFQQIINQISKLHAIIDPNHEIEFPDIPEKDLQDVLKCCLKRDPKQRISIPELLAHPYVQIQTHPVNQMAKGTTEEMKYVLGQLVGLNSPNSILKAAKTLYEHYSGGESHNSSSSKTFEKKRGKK
The response must be a number in nM with no trailing unit.

Request: Which IC50 reading was recorded for the compound `COc1cc(-c2cnn(C)c2C)ccc1Nc1ncc2ccnc(NCC(C)(C)C)c2n1` ?
Result: 79

Request: Which IC50 reading was recorded for the compound `CCOc1cc(-c2nnc(C)n2C)ccc1Nc1ncc2cc(C)nc(NCC(C)(C)C)c2n1` ?
Result: 12

Request: Which IC50 reading was recorded for the compound `CCOc1cc(-c2nncn2C)ccc1Nc1ncc2cc(C)nc(N3CC(C)(C)C3)c2n1` ?
Result: 8.9

Request: Which IC50 reading was recorded for the compound `COc1cc(-c2cn(C)nc2C)ccc1Nc1ncc2ccnc(NCC(C)(C)C)c2n1` ?
Result: 2500

Request: Which IC50 reading was recorded for the compound `CCOc1cc(-c2nncn2C)ccc1Nc1ncc2cc(C)nc(NCC(C)(C)C)c2n1` ?
Result: 11

Request: Which IC50 reading was recorded for the compound `COc1cc(-c2nncn2C)ccc1Nc1ncc2cc(C)nc(NCC(C)(C)C)c2n1` ?
Result: 13

Request: Which IC50 reading was recorded for the compound `CCOc1cc(-c2nnc(CCN(C)C)n2C)ccc1Nc1ncc2cc(C)nc(NCC(C)(C)C)c2n1` ?
Result: 12

Request: Which IC50 reading was recorded for the compound `COc1cc(-c2cnc(C)n2C)ccc1Nc1ncc2cc(C)nc(NCC(C)(C)C)c2n1` ?
Result: 9.5

Request: Which IC50 reading was recorded for the compound `COc1cc(-c2nnc3n2CCC3)ccc1Nc1ncc2cc(C)nc(NCC(C)(C)C)c2n1` ?
Result: 19

Request: Which IC50 reading was recorded for the compound `CCOc1cc(-c2nncn2C)ccc1Nc1ncc2cc(C)nc(N3CCC3(C)C)c2n1` ?
Result: 400

Request: Which IC50 reading was recorded for the compound `CCOc1cc(-c2nncn2C)ccc1Nc1ncc2cc(C)nc(N3CC4(CCOCC4)C3)c2n1` ?
Result: 11

These entries and their values trace back to ChEMBL document CHEMBL4229562.
